Hey, just so you know, these numbers are from patent US10273464B2.

Test: coupled IPK / 5-epi-aristolochene synthase (TEAS) vial assay, GC-MS, FP to FPP conversion
Assay type: biochemical
Settings: 10 μM IPK, 150 μM FP, ATP, Mg, pH 8.0, 20 minutes at 55° C.; 5-epi-aristolochene quantified by GC-MS
measurement-type: conversion (phosphorylation) of FP to FPP

{"molecule": "I146V: IPK mutant, residue 146 Ile to Val (protein, listed as Methanocaldococcus jannaschii) MLTILKLGGSILSDKNVPYSIKWDNLERIAMEIKNALDYYKNQNKEIKLILVHGGGAFGHPVAKKYLKIEDGKKIFINMEKGFWEIQRAMRRFNNIIIDTLQSYDIPAVSIQPSSFVVFGDKLIFDTSAIKEMLKRNLVPVIHGDVVIDDKNGYRIISGDDIVPYLANELKADLILYATDVDGVLIDNKPIKRIDKNNIYKILNYLSGSNSIDVTGGMKYKIEMIRKNKCRGFVFNGNKANNIYKALLGEVEGTEIDFSE", "result": "decreased activity"}
{"molecule": "I156V: IPK mutant, residue 156 Ile to Val (protein, listed as Methanocaldococcus jannaschii) MLTILKLGGSILSDKNVPYSIKWDNLERIAMEIKNALDYYKNQNKEIKLILVHGGGAFGHPVAKKYLKIEDGKKIFINMEKGFWEIQRAMRRFNNIIIDTLQSYDIPAVSIQPSSFVVFGDKLIFDTSAIKEMLKRNLVPVIHGDIVIDDKNGYRVISGDDIVPYLANELKADLILYATDVDGVLIDNKPIKRIDKNNIYKILNYLSGSNSIDVTGGMKYKIEMIRKNKCRGFVFNGNKANNIYKALLGEVEGTEIDFSE", "result": "decreased activity"}
